# method.notes: physchem
# settings: Concentration (solubility, Fig. S7b)
Square brackets hold non-standard residues; d marks the D form. Peptide text beside a SMILES is read from it.
measurement.kind: solubility (µg/mL)
# number only, unit µg/mL dropped from output

[Q] Fill in the blank: the reported solubility of CC(C)C[C@@H]1NC(=O)[C@H](CCCNC(=N)N)NC(=O)[C@H](C(C)C)NC(=O)[C@@H]2CCCN2C(=O)[C@@H](Cc2ccccc2)NC(=O)[C@H](CC(C)C)NC(=O)[C@H](CCCNC(=N)N)NC(=O)[C@H](C(C)C)NC(=O)[C@H](C)NC(=O)[C@@H](Cc2ccccc2)NC1=O [XQ2, Cyclo (LfAVRLfPVR)] (cyclo(L[dF]AVRL[dF]PVR)) is ____.
[A] 860

---

# method.notes: Solubility in water (spectrophotometer at 280nm, turbidity)
# settings: water, Concentration (solubility, Fig. S7b)
Square brackets hold non-standard residues; d marks the D form. Peptide text beside a SMILES is read from it.
measurement.kind: solubility (µg/mL)
# number only, unit µg/mL dropped from output

[Q] Fill in the blank: the reported solubility of CC(C)C[C@@H]1NC(=O)[C@H](CCCNC(=N)N)NC(=O)[C@H](C(C)C)NC(=O)[C@@H]2CCCN2C(=O)[C@@H](Cc2ccccc2)NC(=O)[C@H](CC(C)C)NC(=O)[C@H](CCCNC(=N)N)NC(=O)[C@H]([C@@H](C)O)NC(=O)[C@H](C)NC(=O)[C@@H](Cc2ccccc2)NC1=O [XQ2B] (cyclo([dF]ATRL[dF]PVRL)) is ____.
[A] 2850

---

remaining activity at 20 µM values by entry
# tgt: recombinant human cGAS enzyme (hcGAS-ΔN, residues 147–522) (Homo sapiens)
# Construct: N-terminally truncated human cGAS (hcGAS-ΔN, residues 147–522); 6xHis-SUMO (N, cleaved yes); made in house; host or cells: Escherichia coli BL21 (DE3)
# Sequence (Q8N884 147-522, stated change not applied): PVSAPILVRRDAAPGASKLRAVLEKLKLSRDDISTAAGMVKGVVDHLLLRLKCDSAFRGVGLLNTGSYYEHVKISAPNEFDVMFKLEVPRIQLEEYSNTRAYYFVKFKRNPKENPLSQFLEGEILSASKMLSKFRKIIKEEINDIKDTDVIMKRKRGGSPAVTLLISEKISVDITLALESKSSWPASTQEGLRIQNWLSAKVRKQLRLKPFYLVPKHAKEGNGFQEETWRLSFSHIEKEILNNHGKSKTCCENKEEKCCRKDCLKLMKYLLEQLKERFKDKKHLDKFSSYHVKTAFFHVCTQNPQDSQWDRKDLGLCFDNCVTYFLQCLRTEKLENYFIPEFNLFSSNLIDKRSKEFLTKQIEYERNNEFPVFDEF
# method.notes: RNA-based fluorescent biosensor assay of cGAS activity (2',3'-cGAMP formation), in vitro screening
# Format: biochemical
# settings: 20 μM; replicate values; read-out: Remaining activity (%), Fig. 1a source data
Square brackets hold non-standard residues; d marks the D form. Peptide text beside a SMILES is read from it.
# number only, unit % dropped from output

Sample answers from the record:
compound | measurement.kind | u | value.measured
CC(C)C[C@@H]1NC(=O)[C@H](CCCNC(=N)N)NC(=O)[C@H](C(C)C)NC(=O)[C@@H]2CCCN2C(=O)[C@@H](Cc2ccccc2)NC(=O)[C@H](CC(C)C)NC(=O)[C@H](CCCNC(=N)N)NC(=O)[C@H](C(C)C)NC(=O)[C@H](C)NC(=O)[C@@H](Cc2ccccc2)NC1=O [XQ2, Cyclo (LfAVRLfPVR)] (cyclo(L[dF]AVRL[dF]PVR)) | remaining activity at 20 µM | % | 59.5
CC(C)C[C@@H]1NC(=O)[C@H](C)NC(=O)[C@H](C(C)C)NC(=O)[C@@H]2CCCN2C(=O)[C@@H](Cc2ccccc2)NC(=O)[C@H](CC(C)C)NC(=O)[C@H](CCCNC(=N)N)NC(=O)[C@H](C(C)C)NC(=O)[C@@H]2CCCN2C(=O)[C@@H](Cc2ccccc2)NC1=O [XQ4, Cyclo (LfPVALfPVR)] (cyclo(AL[dF]PVRL[dF]PV)) | remaining activity at 20 µM | % | 84.5
CC(C)[C@@H]1NC(=O)[C@@H]2CCCN2C(=O)[C@@H](Cc2ccccc2)NC(=O)[C@H](C)NC(=O)[C@H](CCCNC(=N)N)NC(=O)[C@H](C(C)C)NC(=O)[C@@H]2CCCN2C(=O)[C@@H](Cc2ccccc2)NC(=O)[C@H](C)NC(=O)[C@H](CCCNC(=N)N)NC1=O [XQ10, Cyclo (AfPVRAfPVR)] (cyclo(A[dF]PVRA[dF]PVR)) | remaining activity at 20 µM | % | 103
CC(C)C[C@@H]1NC(=O)[C@H](C)NC(=O)[C@H](C(C)C)NC(=O)[C@@H]2CCCN2C(=O)[C@@H](Cc2ccccc2)NC(=O)[C@H](CCCNC(=N)N)NC(=O)[C@H](CCCNC(=N)N)NC(=O)[C@H](C(C)C)NC(=O)[C@@H]2CCCN2C(=O)[C@@H](Cc2ccccc2)NC1=O [XQ44, Cyclo (RfPVALfPVR)] (cyclo(AL[dF]PVRR[dF]PV)) | remaining activity at 20 µM | % | 107
CC(C)C[C@@H]1NC(=O)[C@H](CCCNC(=N)N)NC(=O)[C@H](C(C)C)NC(=O)[C@@H]2CCCN2C(=O)[C@@H](C)NC(=O)[C@H](CC(C)C)NC(=O)[C@H](CCCNC(=N)N)NC(=O)[C@H](C(C)C)NC(=O)[C@@H]2CCCN2C(=O)[C@@H](C)NC1=O [XQ7, Cyclo (LaPVRLaPVR)] (cyclo(L[dA]PVRL[dA]PVR)) | remaining activity at 20 µM | % | 101

In the following, a different compound is considered.
[Q] Fill in the blank: the reported remaining activity at 20 µM of CC(C)C[C@@H]1NC(=O)[C@H](CCCNC(=N)N)NC(=O)[C@@H]2CCCN2C(=O)[C@@H](Cc2ccccc2)NC(=O)[C@H](CCCNC(=N)N)NC(=O)[C@H](C(C)C)NC(=O)[C@@H]2CCCN2C(=O)[C@@H](Cc2ccccc2)NC1=O [XQ25, Cyclo (fPVRfPRL)] (cyclo(L[dF]PVR[dF]PR)) is ____.
[A] 112
